Please respond with reported IC50 for every item in the list.
target: human type 1 glycine transporter (GlyT1) (Homo sapiens); construct: T98G cells (glioma cells) expressing human type 1 glycine transporter (GlyT1) were used; test: Glycine uptake inhibition experiment ([3H]glycine uptake); type: cell-based; conditions: GlyT1
Give just the number in nM; leave the unit off.

Lab note: measured IC50 of O=C(NC(c1ccccc1)C1(O)CCCC1)c1nccc(C(F)(F)F)c1Cl (stereo not shown) was 480

IC50 recorded for this compound, O=C(NC(c1cnccc1Cl)[C@]1(O)CC[C@@H](F)CC1)c1nccc(C(F)(F)F)c1Cl (single isomer, unassigned) , is 380

Reported IC50 of O=C(NC(c1cc(Cl)ccn1)[C@]1(O)CC[C@@H](F)CC1)c1nccc2ccccc12 (single isomer, unassigned) : 900

// IC50 lookup, compound = O=C(NC(c1cccc(F)c1F)C1(O)CCC(F)(F)CC1)c1ccnc(C(F)(F)F)c1Cl (single isomer, unassigned) , result: 210

IC50 in this record for O=C(NC(c1cc(F)cc(Cl)c1)C1(O)CCCC1)c1nccc(C(F)(F)F)c1Cl (single isomer, unassigned) [Compound 94] : 110

Just so you know, measured IC50 for O=C(NC(c1ccccc1)[C@]1(O)CC[C@@H](F)CC1)c1nccc(C(F)(F)F)c1Cl (stereo partly shown) [Compound 158] came out at 350

The value of IC50 measured for the compound O=C(NC(c1cccc(F)n1)C1(O)CCC(F)(F)CC1)c1ccnc(C(F)(F)F)c1Cl (single isomer, unassigned) turned out to be 250

----------
target: human type 1 glycine transporter (GlyT1) (Homo sapiens, UniProt P48067); construct: T98G cells (glioma cells) expressing human type 1 glycine transporter (GlyT1) were used; assay: Glycine uptake inhibition experiment ([3H]glycine uptake); assay type: cell-based; conditions: GlyT1
ASSAY_METRIC: IC50
Mention the unit after the number when you answer.

# O=C(NC(c1cc(Cl)ccc1Cl)C1(O)CCCC1)c1nccc(C(F)(F)F)c1Cl (centres unmarked) [Compound 108] with human type 1 glycine transporter (GlyT1) (Homo sapiens, UniProt P48067): IC50 is 0.068 µM

// assay human type 1 glycine transporter (GlyT1) (Homo sapiens, UniProt P48067), entry O=C(NC(c1cccc(Cl)n1)C1(O)CCC(F)(F)CC1)c1ccnc(C(F)(F)F)c1Cl (single isomer, unassigned) , IC50 value = 0.38 µM

Note to self: IC50 of CCn1cc(-c2cccc(C(NC(=O)c3nccnc3Cl)C3(O)CCC(F)(F)CC3)c2)cn1 (centres unmarked) with human type 1 glycine transporter (GlyT1) (Homo sapiens, UniProt P48067) was 3.1 µM

Item CS(=O)(=O)c1ccc(C(F)(F)F)cc1C(=O)NC(c1ccccc1Cl)C1(O)CCC(F)(F)CC1 (single isomer, unassigned) was tested on human type 1 glycine transporter (GlyT1) (Homo sapiens, UniProt P48067); the reported IC50 is 0.33 µM

Form field IC50 for item O=C(NC(c1cccc(Br)c1)C1(O)CCC(F)(F)CC1)c1nccc(C(F)(F)F)c1Cl (single isomer, unassigned) [Compound 90] on human type 1 glycine transporter (GlyT1) (Homo sapiens, UniProt P48067): 0.3 µM

For the compound O=C(NC(c1cc(Cl)ccn1)[C@]1(O)CC[C@@H](F)CC1)c1cccc(C(F)(F)F)c1Cl (single isomer, unassigned) , the measured IC50 on human type 1 glycine transporter (GlyT1) (Homo sapiens, UniProt P48067) was 0.088 µM

Case O=C(NC(c1cccc(Cl)n1)[C@]1(O)CC[C@@H](F)CC1)c1cc(C(F)(F)F)ccc1Cl (single isomer, unassigned) , human type 1 glycine transporter (GlyT1) (Homo sapiens, UniProt P48067), IC50 recorded as 0.19 µM

Form: item CCn1cc(-c2cccc(C(NC(=O)c3nccc4ccccc34)C3(O)CCCC3)c2)cn1 (centres unmarked) ; test system human type 1 glycine transporter (GlyT1) (Homo sapiens, UniProt P48067); IC50: 0.11 µM

The reported IC50 value, human type 1 glycine transporter (GlyT1) (Homo sapiens, UniProt P48067), for O=C(NC(c1cccc(-n2nccn2)c1)C1(O)CCCC1)c1nccc(C(F)(F)F)c1Cl (centres unmarked) reads 0.31 µM

With human type 1 glycine transporter (GlyT1) (Homo sapiens, UniProt P48067) as the test system, O=C(NC(c1cccc(F)c1Cl)[C@]1(O)CC[C@@H](F)CC1)c1cccc(C(F)(F)F)c1Cl (single isomer, unassigned) showed IC50 of 0.1 µM

Here O=C(NC(c1ccccc1)C1(O)CCCC1)c1cccc(C(F)(F)F)c1Cl (centres unmarked) was tested on human type 1 glycine transporter (GlyT1) (Homo sapiens, UniProt P48067), and its IC50 came to 1 µM

# O=C(NC(c1cccc(F)c1Cl)[C@]1(O)CC[C@@H](F)CC1)c1nc(Cl)ccc1Cl (single isomer, unassigned) with human type 1 glycine transporter (GlyT1) (Homo sapiens, UniProt P48067): IC50 is 3.9 µM

For the compound CN(C)Cc1cccc(C(NC(=O)c2nccc(C(F)(F)F)c2Cl)C2(O)CCCC2)c1 (centres unmarked) , the measured IC50 on human type 1 glycine transporter (GlyT1) (Homo sapiens, UniProt P48067) was 1.8 µM

Param item: O=C(NC(c1cccc(F)c1Cl)[C@]1(O)CC[C@@H](F)CC1)c1cc(-n2ccnn2)ccc1Cl (single isomer, unassigned) ; param system: human type 1 glycine transporter (GlyT1) (Homo sapiens, UniProt P48067); output IC50: 1.9 µM

----------
target: human type 1 glycine transporter (GlyT1) (Homo sapiens); construct: T98G cells (glioma cells) expressing human type 1 glycine transporter (GlyT1) were used; assay: Glycine uptake inhibition experiment ([3H]glycine uptake); assay type: cell-based; details: GlyT1
Consider the following compounds; for each one, report its IC50.
Express the result in nM but write the number alone.

In plain terms, O=C(NC(c1cccc(Br)c1)C1(O)CCC(F)(F)CC1)c1nccc(C(F)(F)F)c1Cl (stereo not shown) [Compound 85] has a documented IC50 of 320

Kindly note the recorded IC50 for O=C(NC(c1cc(Cl)ccc1F)[C@]1(O)CC[C@@H](F)CC1)c1cc(C(F)(F)F)cnc1Cl (single isomer, unassigned) , which is 2300

So, O=C(NC(c1cccc(Cl)c1F)C1(O)CCC(F)(F)CC1)c1ccnc(C(F)(F)F)c1Cl (single isomer, unassigned) ? Its IC50 was 95

Per the record, Cc1ccc(-c2ncccn2)c(C(=O)NC(c2cccc(F)c2Cl)[C@]2(O)CC[C@@H](F)CC2)n1 (single isomer, unassigned) has IC50 of 1900

# IC50 (compound: O=C(NC(c1cc(Cl)ccc1Cl)C1(O)CCC(F)(F)CC1)c1nccc(C(F)(F)F)c1Cl (single isomer, unassigned) [Compound 235] ) is 740

Recorded result, O=C(NC(c1cccc(F)c1Cl)[C@]1(O)CC[C@@H](F)CC1)c1c(F)cccc1Cl (single isomer, unassigned) , IC50: 1100

Kindly note the recorded IC50 for O=C(NC(c1cccc(Cl)n1)[C@]1(O)CC[C@@H](F)CC1)c1nccc(C(F)F)c1Cl (single isomer, unassigned) , which is 200

Kindly note the recorded IC50 for CCn1cc(-c2cccc(C(NC(=O)c3nccc(C(F)(F)F)c3Cl)C3(O)CCC(F)(F)CC3)c2)cn1 (single isomer, unassigned) [Compound 92] , which is 27

For record O=C(NC(c1cccc(-c2cnccn2)c1)C1(O)CCC(F)(F)CC1)c1nccc(C(F)(F)F)c1Cl (stereo not shown) the listed IC50 is 320

// sample O=C(NC(c1cccc(F)c1Cl)[C@]1(O)CC[C@@H](F)CC1)c1cc(C(F)(F)F)ccc1-n1nccn1 (single isomer, unassigned) , its IC50 was 1200

IC50 measured on Cc1ccccc1C(NC(=O)c1nccc(C(F)(F)F)c1Cl)C1(O)CCCC1 (stereo not shown) = 280

The reported value for O=C(NC(c1cccc(Cl)n1)C1(O)CCC(F)(F)CC1)c1cccc(C(F)(F)F)c1Cl (single isomer, unassigned) in terms of IC50 is 150

response.value for CCn1cc(-c2cccc(C(NC(=O)c3cc(Cl)ccc3C(F)(F)F)C3(O)CCC(F)(F)CC3)c2)cn1 (stereo not shown) [Compound 203] (field: IC50) = 730

----------
Target: human type 1 glycine transporter (GlyT1) (Homo sapiens, UniProt P48067)
Construct: T98G cells (glioma cells) expressing human type 1 glycine transporter (GlyT1) were used
Sequence (P48067 1-706): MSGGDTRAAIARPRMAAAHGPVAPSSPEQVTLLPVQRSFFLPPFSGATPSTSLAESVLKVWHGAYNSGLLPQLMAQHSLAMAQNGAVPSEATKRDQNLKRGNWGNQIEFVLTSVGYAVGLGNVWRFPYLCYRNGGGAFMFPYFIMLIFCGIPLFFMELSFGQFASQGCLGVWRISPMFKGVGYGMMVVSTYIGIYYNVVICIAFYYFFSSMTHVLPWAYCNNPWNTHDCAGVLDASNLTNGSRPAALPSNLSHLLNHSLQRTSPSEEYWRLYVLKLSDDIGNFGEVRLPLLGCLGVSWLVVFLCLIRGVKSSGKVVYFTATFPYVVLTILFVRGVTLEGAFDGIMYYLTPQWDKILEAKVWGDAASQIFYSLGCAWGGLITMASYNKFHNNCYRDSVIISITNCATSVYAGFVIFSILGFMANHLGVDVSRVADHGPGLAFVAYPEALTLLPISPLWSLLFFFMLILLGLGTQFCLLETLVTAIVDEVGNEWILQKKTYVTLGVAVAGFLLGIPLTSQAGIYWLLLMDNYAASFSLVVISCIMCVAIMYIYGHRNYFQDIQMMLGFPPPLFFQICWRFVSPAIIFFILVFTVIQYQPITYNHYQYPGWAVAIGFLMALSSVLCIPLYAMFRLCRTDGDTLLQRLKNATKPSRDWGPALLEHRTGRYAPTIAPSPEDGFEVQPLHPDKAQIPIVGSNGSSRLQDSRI
Assay: Glycine uptake inhibition experiment ([3H]glycine uptake)
Format: cell-based
Details: GlyT1
ASSAY_METRIC: log10 IC50 (log10 of the value in nM)
Transform log10 | Measure IC50 | Unit nM

Entry O=C(NC(c1cccc(-c2cccnc2)c1)C1(O)CCCCC1)c1nccc(C(F)(F)F)c1Cl (single isomer, unassigned) [Compound 27] , log10 IC50 reported as 2.87

The reported log10 IC50 of the compound COc1ccc(Cl)c(C(=O)NC(c2cccc(F)c2Cl)[C@]2(O)CC[C@@H](F)CC2)c1 (single isomer, unassigned) was 2.65

Reported log10 IC50 ( O=C(NC(c1cccc(F)c1Cl)[C@]1(O)CC[C@@H](F)CC1)c1cc(O)ccc1Cl (single isomer, unassigned) ) = 3.18

Per the record, CCn1cc(-c2cccc(C(NC(=O)c3cccc(C(F)(F)F)c3C)C3(O)CCC(F)(F)CC3)c2)cn1 (single isomer, unassigned) [Compound 149] has log10 IC50 of 3.41

Reported log10 IC50 ( O=C(NC(c1cccc(F)c1Cl)[C@]1(O)CC[C@@H](F)CC1)c1nccnc1Cl (single isomer, unassigned) ) = 3.74

log10 IC50 measured on O=C(NC(c1cccc(-c2cnn(CC(F)(F)F)c2)c1)C1(O)CCC(F)(F)CC1)c1nccc(C(F)(F)F)c1Cl (single isomer, unassigned) [Compound 135] = 1.86

Please fill in: log10 IC50 reported for CCn1cc(-c2cccc(C(NC(=O)c3c(Cl)ccc(OC)c3F)C3(O)CCC(F)(F)CC3)c2)cn1 (stereo not shown) = 3.30

log10 IC50 reading for O=C(NC(c1cccc(Cl)n1)C1(O)CCC(F)(F)CC1)c1cc(C(F)(F)F)cnc1Cl (single isomer, unassigned) : 2.34

Looking up O=C(NC(c1cccc(F)c1Cl)[C@]1(O)CC[C@@H](F)CC1)c1cc(Cl)nnc1Cl (single isomer, unassigned) , I see its log10 IC50 listed as 3.00

Lab note: O=C(NC(c1cccc(Cl)c1Cl)C1(O)CCC(F)(F)CC1)c1nccc(C(F)(F)F)c1Cl (stereo not shown) [Compound 131] gave log10 IC50 of 2.20

Sure, the documented log10 IC50 for O=C(NC(c1cc(Cl)ccn1)[C@]1(O)CC[C@@H](F)CC1)c1nccc(C(F)F)c1Cl (single isomer, unassigned) is 3.15

Memo: O=C(NC(c1cccc(-c2cccnc2)c1)C1(O)CCCCC1)c1nccc(C(F)(F)F)c1Cl (single isomer, unassigned) [Compound 28] , reported log10 IC50: 1.30

Input O=C(NC(c1cccnc1Cl)[C@]1(O)CC[C@@H](F)CC1)c1cc(C(F)(F)F)ncc1Cl (single isomer, unassigned) . Output log10 IC50: 2.30

Per the records, this compound ( O=C(NC(c1ccccc1Cl)C1(O)CCC(F)(F)CC1)c1nccc(C(F)(F)F)c1Cl (single isomer, unassigned) [Compound 156] ) has log10 IC50 equal to 3.26

Sure, the documented log10 IC50 for O=C(NC(c1cc(Cl)ccn1)[C@]1(O)CC[C@@H](F)CC1)c1cc(C(F)(F)F)ncc1Cl (single isomer, unassigned) is 3.23

Short answer for COc1cc(C(F)(F)F)cc(C(F)(F)F)c1C(=O)NC(c1ccccc1)C1(O)CCCC1 (stereo not shown) : log10 IC50 was 3.30

log10 IC50 in this record for CCn1cc(-c2cccc(C(NC(=O)c3ccnc(C(F)(F)F)c3Cl)C3(O)CCC(F)(F)CC3)c2)cn1 (stereo not shown) : 2.20

Form field log10 IC50, entry CCn1cc(-c2cccc(C(NC(=O)c3cc(Cl)ccc3Cl)C3(O)CCC(F)(F)CC3)c2)cn1 (single isomer, unassigned) [Compound 193] : 2.92

Entry O=C(NC(c1ccc(F)cc1)C1(O)CCCC1)c1nccc(C(F)(F)F)c1Cl (single isomer, unassigned) [Compound 59] , log10 IC50 reported as 3.98

Lab book: log10 IC50 of O=C(NC(c1cccc(Cl)c1F)C1(O)CCC(F)(F)CC1)c1nccc(C(F)(F)F)c1Cl (single isomer, unassigned) noted as 1.76

Kindly note the recorded log10 IC50 for CS(=O)(=O)c1cnc(C(F)(F)F)cc1C(=O)NC(c1cccc(F)c1Cl)[C@]1(O)CC[C@@H](F)CC1 (single isomer, unassigned) , which is 1.54

The reported log10 IC50 of the compound O=C(NC(c1cccc(F)c1Cl)[C@]1(O)CC[C@@H](F)CC1)c1cc(Cl)ccc1C(F)(F)F (single isomer, unassigned) was 2.62

Entry O=C(NC(c1cccc(F)c1)C1(O)CCC(F)(F)CC1)c1nccc(C(F)(F)F)c1Cl (single isomer, unassigned) [Compound 76] ; log10 IC50 = 2.40

Per the records, this compound ( O=C(NC(c1cccc(Br)c1)C1(O)CCCC1)c1nccc(C(F)(F)F)c1Cl (stereo not shown) ) has log10 IC50 equal to 2.23

O=C(NC(c1cccc(F)c1Cl)[C@]1(O)CC[C@@H](F)CC1)c1ccc(C(F)(F)F)nc1-n1nccn1 (single isomer, unassigned) yielded log10 IC50 of 1.60
